# test target: HRgpA-6H (Porphyromonas gingivalis) (UniProt P28784)
# test: ELISA, Fab FASEBA supernatant on coated HRgpA-6H (0.0625 ug/ml)
measurement label: OD450nm
Answer using only a numeral; do not append any unit.

Prompt: Given KB001 parental mouse Fab VH variant Y106K (Fab, V domains shown) VH: EVQLKQSGPGLVAPSQSLSITCTVSGFSLSIYSVHWVRQPPGKGLEWLGMIWGGGSSDYNSALKSRLSISKDNSKSQVFLKMNSLQTDDTAMYYCARNGNFYAMDKWGQGTSVTVSS VL: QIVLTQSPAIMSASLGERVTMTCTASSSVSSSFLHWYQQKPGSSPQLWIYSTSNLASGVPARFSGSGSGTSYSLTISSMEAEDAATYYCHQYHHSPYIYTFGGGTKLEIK , respond with its OD450nm.
Response: 0.767

Prompt: Given KB001 parental mouse Fab VH variant G99Y (Fab, V domains shown) VH: EVQLKQSGPGLVAPSQSLSITCTVSGFSLSIYSVHWVRQPPGKGLEWLGMIWGGGSSDYNSALKSRLSISKDNSKSQVFLKMNSLQTDDTAMYYCARNYNFYAMDYWGQGTSVTVSS VL: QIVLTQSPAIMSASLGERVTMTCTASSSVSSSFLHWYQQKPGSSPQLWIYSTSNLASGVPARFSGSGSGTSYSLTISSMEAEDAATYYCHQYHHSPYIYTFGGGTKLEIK , respond with its OD450nm.
Response: 0.769

Prompt: Given KB001 parental mouse Fab VH variant Y106H (Fab, V domains shown) VH: EVQLKQSGPGLVAPSQSLSITCTVSGFSLSIYSVHWVRQPPGKGLEWLGMIWGGGSSDYNSALKSRLSISKDNSKSQVFLKMNSLQTDDTAMYYCARNGNFYAMDHWGQGTSVTVSS VL: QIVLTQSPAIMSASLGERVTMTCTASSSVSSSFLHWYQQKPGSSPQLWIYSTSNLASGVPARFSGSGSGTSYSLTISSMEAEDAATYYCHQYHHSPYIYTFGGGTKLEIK , respond with its OD450nm.
Response: 0.722
